- Assay protocol: PCB52 and monohydroxylated metabolite tissue levels by GC-MS/MS after 4 h nose-only inhalation
- Type: in vivo, Sprague–Dawley rats
- Settings: male, Sprague-Dawley, rat, brain, inhaled, male, high dose, mean; read-out: PCB or metabolite detected level, Brain

>  <Chem smiles>
Clc1ccc(Cl)c(-c2cc(Cl)ccc2Cl)c1

>  <concentration at 4 h [ng/g]>
2

$$$$

====

Consider the following compounds and their measured concentration at 4 h readings.
- Assay protocol: PCB52 and monohydroxylated metabolite tissue levels by GC-MS/MS after 4 h nose-only inhalation
- Assay type: in vivo, Sprague–Dawley rats
- Settings: female, Sprague-Dawley, rat, cecum, inhaled, female, low dose, mean; read-out: PCB or metabolite detected level, Cecum

>  <Compound>
Clc1ccc(Cl)c(-c2cc(Cl)ccc2Cl)c1 [PCB52, 2,2′,5,5′-tetrachlorobiphenyl]

>  <Unit tag>
ng/g

>  <concentration at 4 h>
1

$$$$
>  <Compound>
Oc1cc(Cl)c(-c2cc(Cl)ccc2Cl)cc1Cl [4-OH-PCB52, 2,2′,5,5′-Tetrachlorobiphenyl-4-ol]

>  <Unit tag>
ng/g

>  <concentration at 4 h>
2

$$$$

====

- Assay protocol: PCB52 and monohydroxylated metabolite tissue levels by GC-MS/MS after 4 h nose-only inhalation
- Assay type: in vivo, Sprague–Dawley rats
- Settings: male, Sprague-Dawley, rat, serum, inhaled, male, low dose, mean; read-out: PCB or metabolite detected level, Serum
Listed below: concentration at 4 h values for each entry.
Assay readout: concentration at 4 h

>  <Chem smiles>
Clc1ccc(Cl)c(-c2cc(Cl)ccc2Cl)c1

>  <Assay result>
2 ng/g

$$$$
>  <Chem smiles>
Oc1cc(Cl)c(-c2cc(Cl)ccc2Cl)cc1Cl

>  <Assay result>
0.4 ng/g

$$$$

====

- Assay protocol: PCB52 and monohydroxylated metabolite tissue levels by GC-MS/MS after 4 h nose-only inhalation
- Assay type: in vivo, Sprague–Dawley rats
- Settings: female, Sprague-Dawley, rat, serum, inhaled, female, low dose, mean; read-out: PCB or metabolite detected level, Serum

>  <Compound>
Oc1cc(Cl)c(-c2cc(Cl)ccc2Cl)cc1Cl [4-OH-PCB52, 2,2′,5,5′-Tetrachlorobiphenyl-4-ol]

>  <concentration at 4 h>
0.4 ng/g

$$$$
>  <Compound>
Clc1ccc(Cl)c(-c2cc(Cl)ccc2Cl)c1 [PCB52, 2,2′,5,5′-tetrachlorobiphenyl]

>  <concentration at 4 h>
1 ng/g

$$$$

====

- Assay protocol: PCB52 and monohydroxylated metabolite tissue levels by GC-MS/MS after 4 h nose-only inhalation
- Format: in vivo, Sprague–Dawley rats
- Settings: male, Sprague-Dawley, rat, intestinal content, inhaled, male, low dose, mean; read-out: PCB or metabolite detected level, Intestinal content

>  <Chem smiles>
Clc1ccc(Cl)c(-c2cc(Cl)ccc2Cl)c1

>  <concentration at 4 h>
1 ng/g

$$$$

====

- Assay protocol: PCB52 and monohydroxylated metabolite tissue levels by GC-MS/MS after 4 h nose-only inhalation
- Assay type: in vivo, Sprague–Dawley rats
- Settings: male, Sprague-Dawley, rat, lung, inhaled, male, low dose, mean; read-out: PCB or metabolite detected level, Lung

>  <Molecule>
Oc1cc(Cl)c(-c2cc(Cl)ccc2Cl)cc1Cl [4-OH-PCB52, 2,2′,5,5′-Tetrachlorobiphenyl-4-ol]

>  <concentration at 4 h [ng/g]>
0.1

$$$$
>  <Molecule>
Clc1ccc(Cl)c(-c2cc(Cl)ccc2Cl)c1 [PCB52, 2,2′,5,5′-tetrachlorobiphenyl]

>  <concentration at 4 h [ng/g]>
50

$$$$
